System: Escherichia coli TOP10;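 note: peptides expressed intracellularly from a pBAD plasmid library in pooled LB shake-flask culture, induced with 0.3% L-arabinose, DNA abundance read by NGS, three biological replicates, DESeq2 with apeglm shrinkage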
Assay: shrunken log2 fold change of peptide-encoding DNA abundance (4.5 h post-induction vs induction); higher = less antimicrobial activity (less host growth inhibition)
Settings: time post-induction: 4.5 h; library: site-saturation at positions 5, 18, 19, 20
measurement.label: shrunken log2 fold change
Just the number, please, no unit attached.

## Task // returns reported shrunken log2 fold change for input `RRIRWRPPRLPRPRPRPSKIPRP`
## Result -0.152

## Task // returns reported shrunken log2 fold change for input `RRIRGRPPRLPRPRPRPYWWPRP`
## Result -0.0995

## Task // returns reported shrunken log2 fold change for input `RRIRERPPRLPRPRPRPSIVPRP`
## Result -0.443

## Task // returns reported shrunken log2 fold change for input `RRIRVRPPRLPRPRPRPTNYPRP`
## Result -0.519

## Task // returns reported shrunken log2 fold change for input `RRIRTRPPRLPRPRPRPIKCPRP`
## Result -0.234

## Task // returns reported shrunken log2 fold change for input `RRIRRRPPRLPRPRPRPDGHPRP`
## Result -0.0521

## Task // returns reported shrunken log2 fold change for input `RRIRDRPPRLPRPRPRPNSYPRP`
## Result 0.179

## Task // returns reported shrunken log2 fold change for input `RRIRIRPPRLPRPRPRPRSEPRP`
## Result -0.0944

## Task // returns reported shrunken log2 fold change for input `RRIRPRPPRLPRPRPRPSQEPRP`
## Result -0.199
